Tested on: SK-MEL-28 melanoma
assay comment: NCI-60 one-dose screen, 48 h (100 = growth as untreated, 0 = no growth, -100 = all killed)
study conditions: 10 µM
Compounds without any hit were thinned out: in the full panel of roughly 83,000, 20% have a hit.
Define the label as 1 when growth is strictly less than 90% and as -1 in all remaining cases.

[[record]]
compound = "CC(=O)/C(=C/c1ccc(Br)cc1)C(=O)c1ccccc1"
category = -1


Query: Determine if CC(C)N(CCOc1cccc(-c2nc3sccn3c2-c2ccnc(S(C)(=O)=O)n2)c1)C(C)C shows growth strictly lower than 90%.
Result: -1

Query: Determine if COc1cc(/C=C/c2cc(/C=C/c3ccc(O)c(OC)c3)[nH]c(=O)n2)ccc1O shows growth strictly lower than 90%.
Result: 1

Query: Determine if COc1ccc2nc3cc(Cl)ccc3c(Nc3cc(CN4CCCC4)c(O)c(CN4CCCC4)c3)c2n1 shows growth strictly lower than 90%.
Result: 1

Query: Determine if COc1cc2cc(Oc3ccc(NC(=O)c4cc(C(F)(F)F)cc(C(F)(F)F)c4)cc3)c(C)nc2cc1OC shows growth strictly lower than 90%.
Result: 1

Query: Determine if O=C1c2ccccc2C(=O)c2c1ccc(C(Br)Br)c2[N+](=O)[O-] shows growth strictly lower than 90%.
Result: -1

Query: Determine if NC(CSC(c1ccccc1)(c1ccccc1)c1cccc2ccccc12)C(=O)O (stereo not given) shows growth strictly lower than 90%.
Result: -1

###

Tested on: 786-0 renal
assay comment: NCI-60 one-dose screen, 48 h
study conditions: 10 µM
The panel holds about 83,000 compounds, 20% with a hit somewhere; the sample as a whole holds those more often. The source made the active and inactive calls. How the source made its calls: active means growth percent below 10; inactive means the rest.
Output constraint: value belongs to YES = active, NO = inactive

Worked examples follow.
[[record]]
compound = "C[N+]1(CCCCC[N+]2(C)CCCC2)CCCC1"
category = "NO"

[[record]]
compound = "COc1cc(C)ccc1Oc1nc(Nc2ccc(N3CCOCC3)cc2)ncc1NC(=O)Nc1cc(C(F)(F)F)cc(C(F)(F)F)c1"
category = "NO"

[[record]]
compound = "CC(=O)Nc1ccc(S(=O)(=O)N/N=C(\\C)c2ccc(C)cc2C)cc1"
category = "NO"


Query: Look up the recorded call for COc1cc2nc(SCC(=O)Nc3cc(OC)c(OC)c(OC)c3)n(Cc3ccccc3)c(=O)c2cc1OC in this test.
Result: YES

Query: Look up the recorded call for CN1CCc2c(sc3nc4n(-c5ccc(Cl)cc5)c(=O)[nH]n4c(=O)c23)C1 in this test.
Result: NO

###

Tested on: OVCAR-5 ovarian
assay comment: NCI-60 one-dose screen, 48 h
study conditions: 10 µM
About 83,000 compounds went through this panel and 20% of them were active in at least one assay; those are over-represented in the sample as a whole. Calls of active or inactive are those of the source. Rule for the calls: active = growth percent below 10; inactive = the rest.
Output constraint: value belongs to class 1 (active), class 0 (inactive)

Worked examples follow.
[[record]]
compound = "CCNc1nc(C(F)(F)F)nc2c1sc(=S)n2-c1ccccc1"
measured_on = "OVCAR-5 ovarian"
category = "class 0"

[[record]]
compound = "CCOC(=O)C1=CSC2=NC3=C(CCC/C3=C\\c3cc(OC)c(OC)c(OC)c3)C(c3cc(OC)c(OC)c(OC)c3)N12 (configuration not stated)"
measured_on = "OVCAR-5 ovarian"
category = "class 0"

[[record]]
compound = "NC(=O)c1cccc(-n2ccc3cc(NC(=O)Nc4ccc(Cl)c(C(F)(F)F)c4)ccc32)n1"
measured_on = "OVCAR-5 ovarian"
category = "class 0"

[[record]]
compound = "O=S(=O)(O)c1ccc(Cl)cc1"
measured_on = "OVCAR-5 ovarian"
category = "class 0"

[[record]]
compound = "COc1cc2cc(Oc3ccc(NC(=O)c4ccccc4)cc3)c(C)nc2cc1OC"
measured_on = "OVCAR-5 ovarian"
category = "class 0"


Query: Look up the recorded call for O=C1OC(C(Cl)(Cl)Cl)OC1C(Cl)(Cl)Cl (configuration not stated) in this test.
Result: class 0

Query: Look up the recorded call for CN(C)CCCOc1ccc(NC2=C(Cl)C(=O)C(Nc3ccc(OCCCN(C)C)cc3)=C(Cl)C2=O)cc1 in this test.
Result: class 1
